Target: Inosine-5'-monophosphate dehydrogenase 2 (Homo sapiens)
Sequence (P12268 2-514 limits assumed): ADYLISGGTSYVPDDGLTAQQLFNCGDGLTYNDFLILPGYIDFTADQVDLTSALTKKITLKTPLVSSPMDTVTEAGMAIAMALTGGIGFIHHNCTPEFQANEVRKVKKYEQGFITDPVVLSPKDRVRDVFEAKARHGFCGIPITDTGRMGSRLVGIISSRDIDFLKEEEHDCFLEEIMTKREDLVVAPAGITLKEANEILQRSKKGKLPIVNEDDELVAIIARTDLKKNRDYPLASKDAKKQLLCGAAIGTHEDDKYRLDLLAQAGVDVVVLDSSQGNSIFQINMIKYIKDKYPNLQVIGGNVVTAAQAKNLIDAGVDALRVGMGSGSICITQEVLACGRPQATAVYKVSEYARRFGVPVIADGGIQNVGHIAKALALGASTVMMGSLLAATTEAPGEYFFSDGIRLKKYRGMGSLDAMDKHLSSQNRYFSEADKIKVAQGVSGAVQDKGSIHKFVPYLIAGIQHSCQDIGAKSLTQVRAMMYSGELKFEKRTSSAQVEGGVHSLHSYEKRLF
Assay: Inhibition of human IMPDH2 using IMP at 10 uM as substrate in presence of NAD+ after 30 mins relative to control
This section presents molecules with their documented inhibition values.
Give a bare numeral; the unit % is implied.

Known results for molecules:
Prompt: Supply inhibition value. Item: COc1ccc(/C=C/C(=O)c2ccc(OCC(=O)Nc3ccc(OC)c(OC)c3)cc2)cc1
Response: 33.6

Prompt: Supply inhibition value. Item: O=C(COc1cccc(C(=O)/C=C/c2ccccc2)c1)Nc1ccc2c(c1)COC2=O
Response: 93.7

Prompt: Supply inhibition value. Item: COc1ccc(/C=C/C(=O)c2cccc(OCC(=O)Nc3ccc4c(c3)COC4=O)c2)cc1OC
Response: 57

# context switch: different molecule, same inhibition
Prompt: Supply inhibition value. Item: O=C(COc1ccc(C(=O)/C=C/c2ccc(Cl)cc2)cc1)Nc1ccc2c(c1)COC2=O
Response: 62.1
